- Target: AxCT mask27 EpCAM H90.2 L041 version 1
Quantity Kind: Percent cleavage (%)
Write it as a number; the unit % goes unstated.

Protein	Units Label	Quantitative Readout
Neutrophil Elastase (protein) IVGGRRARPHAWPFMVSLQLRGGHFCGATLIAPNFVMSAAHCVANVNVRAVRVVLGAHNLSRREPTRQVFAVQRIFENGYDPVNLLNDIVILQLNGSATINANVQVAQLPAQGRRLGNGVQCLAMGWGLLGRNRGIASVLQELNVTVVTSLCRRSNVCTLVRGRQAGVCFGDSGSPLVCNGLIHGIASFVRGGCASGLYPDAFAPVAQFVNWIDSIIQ	%	0
Cathepsin G (protein) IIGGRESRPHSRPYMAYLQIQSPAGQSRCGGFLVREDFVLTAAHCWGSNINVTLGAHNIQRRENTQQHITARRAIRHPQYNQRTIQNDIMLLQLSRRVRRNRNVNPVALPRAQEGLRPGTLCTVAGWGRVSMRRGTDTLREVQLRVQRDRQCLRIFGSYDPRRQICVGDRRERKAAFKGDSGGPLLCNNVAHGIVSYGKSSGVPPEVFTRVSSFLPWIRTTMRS	%	0

Proceed to the following item.
# input protein: MMP-1 (protein) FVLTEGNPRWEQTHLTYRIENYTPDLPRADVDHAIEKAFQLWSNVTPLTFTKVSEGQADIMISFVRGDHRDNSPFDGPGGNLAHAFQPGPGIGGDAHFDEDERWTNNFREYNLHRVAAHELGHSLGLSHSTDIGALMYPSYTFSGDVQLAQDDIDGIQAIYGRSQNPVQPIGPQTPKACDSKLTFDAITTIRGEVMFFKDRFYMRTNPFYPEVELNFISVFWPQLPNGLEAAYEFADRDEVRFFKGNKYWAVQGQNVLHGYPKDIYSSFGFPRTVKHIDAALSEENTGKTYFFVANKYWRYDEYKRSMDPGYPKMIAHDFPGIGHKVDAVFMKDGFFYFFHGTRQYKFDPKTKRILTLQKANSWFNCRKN ; wanted: its Percent cleavage
0
